# system_under_test: B-Raf kinase (SEQ. ID NO: 2) (Homo sapiens (Human))
# assay_details: Biochemical Assay for B-Raf (1)
# test_settings: Table J, assay version (1); read-out: BRAF (1) IC50
quantity: IC50

Answered cases to consult:
{"columns": ["molecule", "IC50"],
 "data": [
  ["CNC(=O)c1cc(-c2cnnc(-c3cc(NC(=O)c4ccnc(C(F)(F)F)c4)ccc3C)c2)ccn1", "100 to 500 nM"],
  ["Cc1ncc(NC(=O)c2cnn(C(C)(C)C)c2)cc1-c1cccc(-c2cc(NC(=O)C3CC3)ncn2)c1", "≤ 100 nM"],
  ["CC(=O)Nc1cc(-c2cc(-c3cc(NC(=O)c4ccnc(C(F)(F)F)c4)ccc3C)cc(OCCO)n2)ccn1", "≤ 100 nM"]
]}

Exercise: Please report the recorded IC50 for Cc1ncc(NC(=O)c2ccnc(C(C)(C)C#N)c2)cc1-c1cccc(-c2ccnc(N)n2)c1 .
Key: 100 to 500 nM

Exercise: Value lookup for IC50; key = Cc1ccc(NC(=O)C2CCOC(C(C)C)C2)cc1-c1cc(-c2ccnc(NC(=O)C3CC3)c2)cnn1 (centres unmarked)
Key: ≤ 100 nM

Exercise: Tell me the measured IC50 of Cc1ccc(NC(=O)c2ccnc(C(C)(C)C#N)c2)cc1-c1cccc(-c2ccnc3[nH]ncc23)c1 , please.
Key: ≤ 100 nM

Exercise: Any idea what its IC50 is? The molecule is Cc1ccc(NC(=O)c2ccnc(C(C)(C)F)c2)cc1-c1nccc(-c2ccnc(NC(=O)C3CC3)c2)n1
Key: ≤ 100 nM

Exercise: For the molecule CNC(=O)c1cc(-c2cc(-c3cc(NC(=O)c4ccnc(C5(C#N)CC5)c4)ccc3C)ncn2)ccn1 , what IC50 is on record?
Key: ≤ 100 nM

Exercise: For Cc1ncc(NC(=O)C2CCOC2)cc1-c1cccc(-c2cc(NC(=O)C3CC3)ncn2)c1 (centres unmarked) , what is its reported IC50?
Key: 1000 to 10000 nM

* * *

# system_under_test: B-Raf kinase (SEQ. ID NO: 2) (Homo sapiens (Human))
# assay_details: Biochemical Assay for B-Raf (1)
# test_settings: Table J, assay version (1); read-out: BRAF (1) IC50
pIC50: −log10 of the molar value.
quantity: pIC50

# annotated cases, reported pIC50 shown
{"columns": ["compound", "pIC50"],
 "data": [
  ["CC(=O)Nc1cc(-c2cc(-c3cc(NC(=O)c4ccnc(C(F)(F)F)c4)c(F)cc3C)ccn2)ccn1 [Example 2]", "≥ 7.00"],
  ["CNC(=O)c1cc(-c2cccc(-c3cc(NC(=O)c4ccnc(C(C)(C)C#N)c4)cnc3C)c2)ccn1 [Example 192]", "6.30 to 7.00"],
  ["COC(=O)Nc1cc(-c2cccc(-c3cc(NC(=O)c4ccnc(C(C)(C)C#N)c4)cnc3C)c2)ncn1 [Example 225]", "≥ 7.00"],
  ["Cc1ccc(NC(=O)c2ccnc(C3(C#N)CC3)c2)cc1-c1cccc(-c2cc(NC(=O)C3CC3)ncn2)n1 [Example 220]", "6.30 to 7.00"],
  ["CC(=O)Nc1cc(-c2nccc(-c3cc(NC(=O)c4ccnc(C(C)(C)C#N)c4)ccc3C)n2)ccn1 [Example 118]", "≥ 7.00"],
  ["COCCNc1cc(-c2nccc(-c3cc(NC(=O)c4ccnc(C(C)(C)C#N)c4)ccc3C)n2)ccn1 [Example 221]", "≥ 7.00"]
]}

Would you kindly look at the next entry?
Exercise: Reported pIC50 for COC(C)(C)C(=O)Nc1cc(-c2cc(-c3cc(NC(=O)c4ccnc(C(C)(C)C#N)c4)cnc3C)ccn2)ccn1 [Example 209] : what is it?
Key: 5.00 to 6.00

* * *

Listed below: IC50 values for each entry.
# system_under_test: C-Raf kinase (SEQ. ID NO: 3) (Homo sapiens (Human), UniProt P04049, Y340D/Y341D)
# Sequence (P04049 307-648 Y340D/Y341D): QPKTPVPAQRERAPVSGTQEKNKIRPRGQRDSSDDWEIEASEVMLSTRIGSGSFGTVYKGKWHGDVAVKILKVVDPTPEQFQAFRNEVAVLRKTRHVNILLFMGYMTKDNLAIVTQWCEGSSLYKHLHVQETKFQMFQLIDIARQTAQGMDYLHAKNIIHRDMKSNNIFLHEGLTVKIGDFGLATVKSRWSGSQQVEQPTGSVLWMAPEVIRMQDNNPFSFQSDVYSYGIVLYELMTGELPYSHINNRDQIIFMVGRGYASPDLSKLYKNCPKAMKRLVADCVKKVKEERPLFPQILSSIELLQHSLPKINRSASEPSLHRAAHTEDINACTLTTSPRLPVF
# assay_details: Biochemical Assay for C-Raf (1)
# test_settings: Table J, assay version (1); read-out: CRAF (1) IC50

{"columns": ["compound", "IC50"],
 "data": [
  ["CNC(=O)c1cc(-c2cc(-c3cc(NC(=O)c4ccnc(C(F)(F)F)c4)ccc3C)ncn2)ccn1 [Example 85]", "≤ 100 nM"]
]}

Lab note: next compound to report on.
Exercise: Return reported IC50; argument: Cc1ccc(NC(=O)c2cc(C(C)(C)C)no2)cc1-c1cc(-c2ccnc(NC(=O)C3CC3)c2)cnn1 [Example 367]
Key: ≤ 100 nM

* * *

# system_under_test: B-Raf (V600E) (SEQ. ID NO: 4) kinase (Homo sapiens (Human), UniProt P15056, V600E)
# Sequence (P15056 416-766 V600E): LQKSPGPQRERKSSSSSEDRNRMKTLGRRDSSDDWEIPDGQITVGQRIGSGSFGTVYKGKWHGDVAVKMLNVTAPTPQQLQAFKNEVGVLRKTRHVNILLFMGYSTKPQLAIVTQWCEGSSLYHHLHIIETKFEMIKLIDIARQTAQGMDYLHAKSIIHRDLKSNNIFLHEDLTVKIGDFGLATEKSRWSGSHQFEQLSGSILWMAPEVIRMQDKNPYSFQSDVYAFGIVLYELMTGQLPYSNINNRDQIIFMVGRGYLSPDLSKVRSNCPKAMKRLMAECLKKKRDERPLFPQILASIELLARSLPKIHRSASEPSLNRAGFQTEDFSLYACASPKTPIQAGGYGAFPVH
# assay_details: Biochemical Assay for B-Raf (V600E) (1)
# test_settings: Table J, BRAF V600E, assay version (1); read-out: BRAF VE (1) IC50
quantity: IC50

// known answers, use as guide
{"columns": ["compound", "result"],
 "data": [
  ["CNC(=O)c1cc(-c2cnnc(-c3cc(NC(=O)c4ccnc(C(C)(C)OC)c4)ccc3C)c2)ccn1", "≤ 100 nM"],
  ["COCC(=O)Nc1cc(-c2cc(-c3cc(NC(=O)c4ccnc(C(C)(C)C#N)c4)ccc3C)ccn2)ccn1", "≤ 100 nM"]
]}

Exercise: What measured IC50 goes with CNC(=O)c1cc(-c2cc(-c3cc(NC(=O)c4ccnc(C(F)(F)F)c4)cnc3C)ccn2)ccn1 ?
Key: ≤ 100 nM

Exercise: Consider the compound Cc1ccc(NC(=O)c2ccnc(C(C)(C)C#N)c2)cc1-c1cncc(-c2ccnc(NC=O)c2)n1 and give its measured IC50.
Key: ≤ 100 nM

Exercise: Query: IC50; subject: Cc1ccc(NC(=O)c2cc(C(F)(F)F)ccn2)cc1-c1ccnc(-c2ccnc(NC(=O)C3CC3)c2)n1
Key: ≤ 100 nM

Exercise: Which IC50 reading was recorded for the compound Cc1ccc(NC(=O)c2ccnc(C(F)(F)F)c2)cc1-c1cccc(-c2cc(NC(=O)C3CC3)ncn2)c1 ?
Key: ≤ 100 nM

Exercise: Please report the recorded IC50 for COCC(=O)Nc1cc(-c2cccc(-c3cc(NC(=O)c4ccnc(C(F)(F)F)c4)cnc3C)n2)ccn1 .
Key: ≤ 100 nM

* * *

Listed compounds paired with reported pIC50
# system_under_test: A-Raf kinase (SEQ. ID No: 1) (Homo sapiens (Human), UniProt P10398, Y301D/Y302D)
# Sequence (P10398 other isoform, or with tags, fused parts or gaps Y301D (already in the parent)/Y302D (already in the parent)): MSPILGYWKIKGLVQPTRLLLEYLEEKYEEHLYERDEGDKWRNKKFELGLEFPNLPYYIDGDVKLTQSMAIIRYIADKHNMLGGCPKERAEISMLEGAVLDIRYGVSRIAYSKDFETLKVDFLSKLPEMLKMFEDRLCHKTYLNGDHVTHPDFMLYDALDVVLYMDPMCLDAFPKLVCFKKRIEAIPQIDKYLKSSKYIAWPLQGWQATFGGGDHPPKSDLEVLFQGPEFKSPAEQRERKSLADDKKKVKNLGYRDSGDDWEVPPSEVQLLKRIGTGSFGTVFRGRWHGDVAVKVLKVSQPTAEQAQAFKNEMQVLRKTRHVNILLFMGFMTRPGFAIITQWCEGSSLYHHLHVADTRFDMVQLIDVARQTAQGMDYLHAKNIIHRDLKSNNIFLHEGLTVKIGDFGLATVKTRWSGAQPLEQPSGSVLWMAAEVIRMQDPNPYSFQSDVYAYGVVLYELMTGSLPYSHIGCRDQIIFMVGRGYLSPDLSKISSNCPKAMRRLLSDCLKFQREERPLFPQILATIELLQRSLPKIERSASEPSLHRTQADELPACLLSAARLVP
# assay_details: Biochemical Assay for A-Raf (1)
# test_settings: Table J, biochemical assay (1); read-out: ARAF (1)
pIC50: −log10 of the molar value.

{"columns": ["compound", "result"],
 "data": [
  ["COC(=O)Nc1cc(-c2cc(-c3cc(NC(=O)c4ccnc(C(C)(C)F)c4)ccc3C)nc(C)n2)ccn1 [Example 416]", "5.00 to 6.00"],
  ["Cc1ccc(NC(=O)c2ccnc(C(C)(C)F)c2)cc1-c1cncc(-c2cc(N)ncn2)c1 [Example 411]", "5.00 to 6.00"],
  ["Cc1cc(F)c(NC(=O)c2ccnc(C3CC3)c2)cc1-c1cncc(-c2cc(NC(=O)C3CC3)ncn2)c1 [Example 398]", "5.00 to 6.00"],
  ["COC(=O)Nc1cc(-c2cc(-c3cc(NC(=O)c4ccnc(C(C)(C)F)c4)ccc3C)cc(OCCO)n2)ccn1 [Example 401]", "5.00 to 6.00"]
]}

Exercise: # query: pIC50 | item Cc1ccc(NC(=O)c2cn(C(C)C)nc2C)cc1-c1cc(-c2ccnc(NC(=O)C3CC3)c2)cnn1 [Example 373] | system: A-Raf kinase (SEQ. ID No: 1) (Homo sapiens (Human), UniProt P10398, Y301D/Y302D)
Key: 5.00 to 6.00

Exercise: Which pIC50 is reported with A-Raf kinase (SEQ. ID No: 1) (Homo sapiens (Human), UniProt P10398, Y301D/Y302D) for this entry: Cc1ccc(NC(=O)c2cc(C(C)(C)C)on2)cc1-c1cncc(-c2cc(NC(=O)C3CC3)ncn2)c1 [Example 431] ?
Key: 6.30 to 7.00

* * *

Each entry below carries its reported pIC50.
# system_under_test: B-Raf kinase (SEQ. ID NO: 2) (Homo sapiens (Human), UniProt P15056)
# Sequence (P15056 416-766): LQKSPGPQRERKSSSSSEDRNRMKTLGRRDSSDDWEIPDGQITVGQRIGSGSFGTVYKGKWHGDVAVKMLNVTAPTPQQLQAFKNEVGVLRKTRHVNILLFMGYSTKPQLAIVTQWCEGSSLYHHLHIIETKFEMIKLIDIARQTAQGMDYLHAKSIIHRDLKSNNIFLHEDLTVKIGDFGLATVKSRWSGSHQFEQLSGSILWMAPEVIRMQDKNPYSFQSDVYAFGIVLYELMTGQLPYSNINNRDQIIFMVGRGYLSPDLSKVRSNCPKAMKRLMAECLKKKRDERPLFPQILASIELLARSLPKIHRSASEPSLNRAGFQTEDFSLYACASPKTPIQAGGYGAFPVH
# assay_details: Biochemical Assay for B-Raf (2)
# test_settings: Table J, biochemical assay (2); read-out: BRAF (2)
pIC50: −log10 of the molar value.

{"columns": ["cpd_smiles", "pIC50"],
 "data": [
  ["CNC(=O)c1cc(-c2cc(-c3cc(NC(=O)c4ccnc(C(C)C)c4)ccc3C)ccn2)ccn1", "≥ 7.00"],
  ["[2H]C([2H])([2H])NC(=O)c1cc(-c2cc(-c3cc(NC(=O)c4ccnc(C(C)(C)F)c4)ccc3C)ccn2)ccn1", "≥ 7.00"],
  ["Cc1ccc(NC(=O)c2ccnc(C(C)(C)F)c2)cc1-c1cc(-c2ccnc(C(N)=O)c2)ncc1F", "6.30 to 7.00"],
  ["Cc1ccc(NC(=O)c2cc(C(F)(F)F)ccc2F)cc1-c1ccnc(-c2ccnc(NC(=O)C3CC3)c2)c1", "≥ 7.00"],
  ["CNC(=O)c1cc(-c2cc(-c3cc(NC(=O)c4ccnc(C(C)(C)F)c4)ccc3C(F)(F)F)ccn2)ccn1", "5.00 to 6.00"]
]}

Exercise: // query pIC50 value for entry Cc1ccc(NC(=O)c2ccnc(C(C)(C)F)c2)cc1-c1ccnc(-c2ccnc(C(=O)NCCN(C)C)c2)c1
Key: ≥ 7.00

Exercise: What value of measured pIC50 is listed for [2H]C([2H])([2H])NC(=O)c1cc(-c2cc(-c3cc(NC(=O)c4ccnc(C5(F)CC5)c4)ccc3C)cc(C)n2)ccn1 ?
Key: 6.30 to 7.00
